- Test Description: Antioxidant activity assessed as ABTS radical scavenging activity after 12 hrs by ELISA
- Format: functional
- Conditions Used: in the assay text read “after 6 mins” for “after 12 hrs”
Property Label: pIC50
Give bare numbers, as −log10 of the molar value.

Quickly give me recorded pIC50 for VITAMIN E 5.22

Data provenance: ChEMBL document CHEMBL1157264
